pIC50 values, listed per item
Molecular target: recombinant human LTA4 hydrolase (rhLTA4H) (Homo sapiens)
Construct: made in house; host or cells: Spodoptera frugiperda (Sf-9) cells, baculovirus (pFastBac1)
Assay: Recombinant human LTA4 hydrolase assay for LTA4 hydrolase inhibitor activity
Assay type: biochemical
Where a name gives a salt, the structure may show the parent alone.
// pIC50: -log10(molar conc.)

Worked cases, pIC50 given:
[[record]]
compound = "CC(=O)N[C@H]1C[C@H]2CC[C@@H](C1)N2Cc1coc2cc(Oc3nc4ncccc4s3)ccc12"
result_value = 8.70

[[record]]
compound = "CC(=O)N[C@@H]1C[C@H]2CC[C@@H](C1)N2Cc1coc2cc(Oc3nc4ncccc4s3)ccc12"
result_value = 9.00


Kindly consider the entry below.
pIC50 for CC(=O)N1C[C@@H]2C[C@H]1CN2Cc1cc2cc(Oc3nc4cnccc4s3)ccc2o1 [Example 199, formate] ?
6.47

---

Test system: LTB4 production in murine blood (LTA4H)
Assay: LTB4 production by calcium ionophore-stimulated murine blood for LTA4H inhibitor activity
Assay type: cell-based, CD-1 mice
Details: Mus musculus; murine blood diluted 1 in 15, A23187 stimulated; single determination or average; mark after value = form tested: ′ free base, ″ hydrochloride, ^ formate; read-out: IC50
measured attribute: IC50
Don't forget the unit after the number, please.

IC50 for O=C(C1CCC1)N1C[C@@H]2C[C@H]1CN2Cc1coc2cc(Oc3nc4ncccc4s3)ccc12 ?
220 nM

IC50 for c1cnc2nc(Oc3ccc4c(CN5CCc6c(sc7ccccc67)C5)c[nH]c4c3)sc2c1 ?
234 nM

IC50 for CC(=O)N[C@H]1C[C@H]2CC[C@@H](C1)N2Cc1c[nH]c2cc(Oc3nc4ncccc4s3)ccc12 ?
301 nM

IC50 for O=C(O)C1CCCN(Cc2c[nH]c3cc(Oc4nc5ccccc5s4)ccc23)C1 (centres unmarked) ?
870 nM

IC50 for CN(Cc1cccnc1)Cc1coc2cc(Oc3nc4ncccc4s3)ccc12 ?
290 nM

IC50 for CC(=O)N1C[C@@H]2C[C@H]1CN2CCc1coc2cc(Oc3nc4ncccc4s3)ccc12 ?
88 nM

IC50 for c1cnc2nc(Oc3ccc4oc(CN5CCCCC5)cc4c3)sc2c1 ?
85 nM

IC50 for NC(=O)NC1CCN(Cc2coc3cc(Oc4nc5ncccc5s4)ccc23)CC1 ?
70 nM

---

Biological target: recombinant human LTA4 hydrolase (rhLTA4H) (Homo sapiens)
Construct: made in house; host or cells: Spodoptera frugiperda (Sf-9) cells, baculovirus (pFastBac1)
Sequence (P09960 1-611): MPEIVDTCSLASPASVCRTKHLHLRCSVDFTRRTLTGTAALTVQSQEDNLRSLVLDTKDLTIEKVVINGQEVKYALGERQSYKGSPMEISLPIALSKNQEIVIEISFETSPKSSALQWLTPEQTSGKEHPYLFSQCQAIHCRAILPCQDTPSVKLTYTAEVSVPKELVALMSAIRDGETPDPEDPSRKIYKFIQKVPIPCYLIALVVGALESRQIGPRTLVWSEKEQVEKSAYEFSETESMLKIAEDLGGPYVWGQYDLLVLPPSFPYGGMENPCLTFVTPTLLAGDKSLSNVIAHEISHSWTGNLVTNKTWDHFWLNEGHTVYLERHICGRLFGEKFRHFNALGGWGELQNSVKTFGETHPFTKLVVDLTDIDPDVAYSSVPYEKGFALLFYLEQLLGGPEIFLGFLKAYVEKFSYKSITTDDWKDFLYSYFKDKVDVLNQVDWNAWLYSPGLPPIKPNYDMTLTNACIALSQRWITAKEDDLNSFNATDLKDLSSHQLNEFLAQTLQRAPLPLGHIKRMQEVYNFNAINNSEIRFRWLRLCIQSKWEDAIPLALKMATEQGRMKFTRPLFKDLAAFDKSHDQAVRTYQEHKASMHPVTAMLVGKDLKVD
Experiment: Recombinant human LTA4 hydrolase assay for LTA4 hydrolase inhibitor activity
Assay type: biochemical
Settings: rhLTA4H, LTB4 by immunoassay; single determination or average of two or more; mark after value = form tested: ′ free base, ″ hydrochloride, ^ formate; read-out: IC50
Counter-ions that a name gives are not always drawn.
measured attribute: pIC50
// pIC50: -log10(molar conc.)

Worked cases, pIC50 given:
[[record]]
molecule = "NC(=O)NC1CCN(Cc2cc3ccc(Oc4nc5ncccc5s4)cc3o2)C1 (centres unmarked) [Example 127, formate]"
subject_of_test = "recombinant human LTA4 hydrolase (rhLTA4H) (Homo sapiens)"
result_value = 7.21

[[record]]
molecule = "c1ccc2sc(Oc3ccc4c(CN5CCOCC5)c[nH]c4c3)nc2c1"
subject_of_test = "recombinant human LTA4 hydrolase (rhLTA4H) (Homo sapiens)"
result_value = 7.80

[[record]]
molecule = "CC(=O)N1C[C@@H]2C[C@H]1CN2Cc1cc2ccc(Oc3nc4cnccc4s3)cc2o1"
subject_of_test = "recombinant human LTA4 hydrolase (rhLTA4H) (Homo sapiens)"
result_value = 5.59

[[record]]
molecule = "O=C1CCCN1C1CCN(Cc2cc3cc(Oc4nc5ncccc5s4)ccc3o2)CC1"
subject_of_test = "recombinant human LTA4 hydrolase (rhLTA4H) (Homo sapiens)"
result_value = 6.85

[[record]]
molecule = "O=C(O)CN[C@H]1C[C@H]2CC[C@@H](C1)N2Cc1cc2ccc(Oc3nc4ccccc4s3)cc2o1"
subject_of_test = "recombinant human LTA4 hydrolase (rhLTA4H) (Homo sapiens)"
result_value = 7.54

[[record]]
molecule = "c1ccc2sc(Oc3ccc4cc(CN5CCCC5)[nH]c4c3)nc2c1"
subject_of_test = "recombinant human LTA4 hydrolase (rhLTA4H) (Homo sapiens)"
result_value = 7.70


Kindly consider the entry below.
pIC50 for CNC(=O)c1coc2cc(Oc3nc4ncccc4s3)ccc12 ?
6.80
